Data origin: PubChem BioAssay (NCI)

Tested on: DU-145 prostate
Assay: NCI tumour cell line growth inhibition, 48 h
experimentalReadout: TGI

### Prompt Using the record for "COc1ccccc1-[n+]1cc(-c2ccc(-c3ccccc3)cc2)n2c1CCCCC2" , report its TGI.
### Response 14.8 µM

### Prompt Using the record for Cc1cn(C2CC(SCCO)C(CO)O2)c(=O)[nH]c1=O (stereo unspecified) , report its TGI.
### Response > 100 µM

### Prompt Using the record for "COc1ccc(Nc2nc(NNC(=O)Cc3ccccc3)nc(NNC(=O)c3ccncc3)n2)cc1" , report its TGI.
### Response > 10 µM

### Prompt Using the record for "CCCC[C@H]1C(=O)O[C@H](C)[C@H](NC(=O)c2cccc(NC=O)c2O)C(=O)O[C@@H](C)[C@@H]1OC(=O)CC(C)C" , report its TGI.
### Response 40.7 µM

### Prompt Using the record for "Cc1ccc2c(c1)nc(C(=O)c1ccco1)c(C(F)(F)F)[n+]2[O-]" , report its TGI.
### Response > 100 µM

### Prompt Using the record for CC(=O)NC1C(OCc2ccccc2)OC(CO)C(O)C1OCC(=O)N[C@@H](C)C(=O)N[C@H](CCC(=O)NCCCCNc1c2ccccc2nc2cccc([N+](=O)[O-])c12)C(N)=O (stereo partly specified) , report its TGI.
### Response 12.4 µM

### Prompt Using the record for "COc1cc(Nc2nc3cc(N)cc(N)c3nc2-c2ccccc2)cc(OC)c1" , report its TGI.
### Response > 100 µM

### Prompt Using the record for COP(=O)(OC)C(NC(c1ccccc1)c1ccccc1)c1ccc2c(c1)OCO2 (stereo unspecified) , report its TGI.
### Response 60.5 µM

### Prompt Using the record for "Cn1c(O)c(/C=N/c2ncccn2)c(=O)[nH]c1=O" , report its TGI.
### Response > 100 µM

### Prompt Using the record for "CCCCn1c2cc(OCc3cn(-c4ccc(Cl)cc4)nn3)ccc2c2ccnc(C)c21" , report its TGI.
### Response > 33.3 µM

### Prompt Using the record for Cc1c(Cl)c(=O)oc2cc(OCC(O)COC(C)C)ccc12 (stereo unspecified) , report its TGI.
### Response > 100 µM

### Prompt Using the record for "CC1=C(/C=C/C(C)=C\C=C\C(C)=C\C(=O)Nc2ccc3c(c2)OCO3)C(C)(C)CCC1" , report its TGI.
### Response > 100 µM

### Prompt Using the record for CC12CCC3C(CC=C4CC(O)CCC43C)C1C/C(=C\N1CCCC1)C2=O (stereo unspecified) , report its TGI.
### Response > 100 µM

### Prompt Using the record for "c1cc2c3c(c1)[C@@H]1O[C@@H]1c1cccc(c1-3)[C@@H]1O[C@H]21" , report its TGI.
### Response 38.7 µM

### Prompt Using the record for COc1cc2oc(=O)ccc2cc1C1OC(=O)C2OC21C (stereo unspecified) , report its TGI.
### Response > 100 µM

### Prompt Using the record for "CC(=O)OC[C@H]1O[C@@H](n2ccc(=O)[nH]c2=O)[C@H](OC(C)=O)[C@@H]1OC(C)=O" , report its TGI.
### Response > 100 µM

### Prompt Using the record for Cc1ccc(C2(N3CCOCC3)OC(C)(C)c3cccc4cccc2c34)cc1 (stereo unspecified) , report its TGI.
### Response 37 µM

### Prompt Using the record for "Cc1c(N=Nc2ccc([N+](=O)[O-])cc2)nc2scc(-c3ccccc3)n12" , report its TGI.
### Response > 100 µM

### Prompt Using the record for "COc1ccc(C[C@H]2COC(=O)[C@@H]2Cc2ccccc2)cc1OC" , report its TGI.
### Response > 100 µM

### Prompt Using the record for "C=C1CN=C(Nc2ccc(F)cc2F)S1" , report its TGI.
### Response > 100 µM

### Prompt Using the record for "N[C@@H](Cc1c[nH]c2ccccc12)C(=O)NC1CCN(C(=O)c2c[nH]c3ccccc23)CC1" , report its TGI.
### Response > 100 µM
